For each record, write down the corresponding pIC50.
# target or test system: Neuronal acetylcholine receptor; alpha4/beta2 (Homo sapiens, UniProt P17787+P43681)
# Sequence (P17787 whole entry): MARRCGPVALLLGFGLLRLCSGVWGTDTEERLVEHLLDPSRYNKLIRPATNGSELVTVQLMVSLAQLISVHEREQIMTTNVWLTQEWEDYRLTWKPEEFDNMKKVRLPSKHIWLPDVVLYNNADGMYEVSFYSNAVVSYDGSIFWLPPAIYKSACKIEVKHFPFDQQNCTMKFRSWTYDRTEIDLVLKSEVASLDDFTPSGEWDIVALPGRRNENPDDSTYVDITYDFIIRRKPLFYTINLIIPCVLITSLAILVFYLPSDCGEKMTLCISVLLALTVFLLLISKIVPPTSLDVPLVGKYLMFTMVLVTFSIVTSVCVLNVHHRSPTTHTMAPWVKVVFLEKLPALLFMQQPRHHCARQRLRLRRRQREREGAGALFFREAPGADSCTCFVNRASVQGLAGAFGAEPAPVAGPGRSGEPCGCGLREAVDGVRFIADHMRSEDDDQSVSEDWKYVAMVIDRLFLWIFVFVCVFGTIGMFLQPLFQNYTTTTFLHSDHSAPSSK
# Sequence (P43681 whole entry): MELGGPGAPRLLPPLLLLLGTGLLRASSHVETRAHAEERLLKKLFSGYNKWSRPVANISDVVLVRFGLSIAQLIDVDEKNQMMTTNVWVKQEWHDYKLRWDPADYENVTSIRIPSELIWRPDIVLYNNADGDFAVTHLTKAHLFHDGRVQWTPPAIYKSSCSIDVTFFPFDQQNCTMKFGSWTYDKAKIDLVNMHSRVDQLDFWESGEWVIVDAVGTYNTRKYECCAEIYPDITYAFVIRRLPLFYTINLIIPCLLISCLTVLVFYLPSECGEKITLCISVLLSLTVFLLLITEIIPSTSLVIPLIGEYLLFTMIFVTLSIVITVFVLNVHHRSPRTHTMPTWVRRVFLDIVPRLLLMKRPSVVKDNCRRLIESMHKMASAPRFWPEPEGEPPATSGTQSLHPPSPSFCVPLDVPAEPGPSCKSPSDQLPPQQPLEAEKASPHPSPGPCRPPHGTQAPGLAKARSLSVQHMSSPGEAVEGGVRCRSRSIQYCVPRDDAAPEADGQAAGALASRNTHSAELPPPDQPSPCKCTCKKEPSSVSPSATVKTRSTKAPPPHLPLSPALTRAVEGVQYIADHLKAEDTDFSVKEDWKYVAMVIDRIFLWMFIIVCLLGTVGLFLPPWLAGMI
# experiment description: Antagonist activity at human alpha4beta2 nAChR expressed in SH-EP1 cells assessed as inhibition of carbamylcholine induced 86Rb+ ion efflux preincubated for 10 mins prior to carbamylcholine-induction measured after 5 mins by flip-plate technique
# Format: functional, cell-based
One number for each entry, as −log10 of the molar value.

Please review the entries below; each comes with its answer.
[[record]]
chem_smiles = "O=C(Nc1ccccc1)OCC[C@H]1C[C@@H]1c1cncc(OC[C@@H]2CCN2)c1"
property_measured = "pIC50"
readout_number = 7.30

[[record]]
chem_smiles = "O=C(NC1CC1)OCC[C@H]1C[C@@H]1c1cncc(OC[C@@H]2CCN2)c1"
property_measured = "pIC50"
readout_number = 7.71

[[record]]
chem_smiles = "OCC[C@@H]1C[C@H]1c1cncc(OC[C@@H]2CCN2)c1"
property_measured = "pIC50"
readout_number = 7.29


Dear reader, for each entry below, please note its pIC50.
1. O=C(OCC[C@H]1C[C@@H]1c1cncc(OC[C@@H]2CCN2)c1)N1CCCC1
2. CNC(=O)OCC[C@H]1C[C@@H]1c1cncc(OC[C@@H]2CCN2)c1
3. OCCCCC#Cc1cncc(OC[C@@H]2CCN2)c1

7.31
7.74
8.32

For each entry beneath this line, provide reported pIC50.
1. COCC[C@H]1C[C@@H]1c1cncc(OC[C@@H]2CCN2)c1
2. OCC[C@H]1C[C@@H]1c1cncc(OC[C@@H]2CCN2)c1
3. CN(C)C(=O)OCC[C@H]1C[C@@H]1c1cncc(OC[C@@H]2CCN2)c1
4. COCC[C@@H]1C[C@H]1c1cncc(OC[C@@H]2CCN2)c1

1: 8.25; 2: 8.03; 3: 7.72; 4: 7.30

---

# experiment description: Cmax in CD1 mouse brain at 5 mg/kg, po at 30 mins
# Type: ADME, organism-based
# Parameters: dose 5 mg/kg, route oral
property measured: Cmax

What value of Cmax has been reported for the following compound? COCC[C@H]1C[C@@H]1c1cncc(OC[C@@H]2CCN2)c1 133 ng/mL

---

# target or test system: Neuronal acetylcholine receptor; alpha3/beta2 (Rattus norvegicus, UniProt P04757+P12390)
# Sequence (P04757 whole entry): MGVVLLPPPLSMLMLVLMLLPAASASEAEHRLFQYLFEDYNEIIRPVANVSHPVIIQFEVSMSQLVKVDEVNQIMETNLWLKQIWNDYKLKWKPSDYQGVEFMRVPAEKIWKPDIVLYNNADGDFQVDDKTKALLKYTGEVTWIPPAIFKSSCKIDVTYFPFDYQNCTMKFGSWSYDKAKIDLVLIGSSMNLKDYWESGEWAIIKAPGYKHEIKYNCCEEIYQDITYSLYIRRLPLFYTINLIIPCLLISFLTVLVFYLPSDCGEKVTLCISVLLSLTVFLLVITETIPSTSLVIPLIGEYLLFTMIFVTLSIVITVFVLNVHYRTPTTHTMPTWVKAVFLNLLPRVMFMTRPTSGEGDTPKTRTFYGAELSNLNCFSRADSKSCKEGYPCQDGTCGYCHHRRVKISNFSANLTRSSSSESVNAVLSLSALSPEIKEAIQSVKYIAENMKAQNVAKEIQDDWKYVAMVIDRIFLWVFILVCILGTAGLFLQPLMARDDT
# Sequence (P12390 whole entry): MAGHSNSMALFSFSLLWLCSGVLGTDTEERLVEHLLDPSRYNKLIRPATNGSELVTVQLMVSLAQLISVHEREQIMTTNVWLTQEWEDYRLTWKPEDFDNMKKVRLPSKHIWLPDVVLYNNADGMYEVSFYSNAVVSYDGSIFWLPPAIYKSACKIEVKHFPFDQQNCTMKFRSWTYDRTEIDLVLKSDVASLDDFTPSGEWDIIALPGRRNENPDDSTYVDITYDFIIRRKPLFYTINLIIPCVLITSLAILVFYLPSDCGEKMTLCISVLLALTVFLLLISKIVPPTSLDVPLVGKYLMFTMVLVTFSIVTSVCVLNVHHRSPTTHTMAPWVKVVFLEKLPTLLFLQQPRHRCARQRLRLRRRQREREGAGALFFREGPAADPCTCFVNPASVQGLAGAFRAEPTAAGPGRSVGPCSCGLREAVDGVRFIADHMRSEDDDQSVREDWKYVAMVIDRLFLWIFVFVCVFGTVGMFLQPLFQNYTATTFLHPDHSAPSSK
# experiment description: Displacement of [3H] epibatidine from rat alpha3beta2 nAChR by beta scintillation counting
# Assay type: protein-complex assay
property measured: pKi
Answers are plain numbers, as −log10 of the molar value.

[[record]]
chem_smiles = "COCC[C@H]1C[C@@H]1c1cncc(OC[C@@H]2CCN2)c1"
property_measured = "pKi"
readout_number = 8.62


For each listed entry, give its pKi.
1. O=C(OCC[C@H]1C[C@@H]1c1cncc(OC[C@@H]2CCN2)c1)N1CCCC1
2. O=C(Nc1ccccc1)OCC[C@H]1C[C@@H]1c1cncc(OC[C@@H]2CCN2)c1
3. COCC[C@@H]1C[C@H]1c1cncc(OC[C@@H]2CCN2)c1
4. CN(C)C(=O)OCC[C@H]1C[C@@H]1c1cncc(OC[C@@H]2CCN2)c1
5. CNC(=O)OCC[C@H]1C[C@@H]1c1cncc(OC[C@@H]2CCN2)c1
6. O=C(NC1CC1)OCC[C@H]1C[C@@H]1c1cncc(OC[C@@H]2CCN2)c1

[7.67, 7.61, 7.70, 7.82, 8.01, 7.80]

Please go through the list and note pKi for each compound.
1. OCC[C@H]1C[C@@H]1c1cncc(OC[C@@H]2CCN2)c1
2. OCC[C@@H]1C[C@H]1c1cncc(OC[C@@H]2CCN2)c1

1. 8.52
2. 7.77

---

# target or test system: Neuronal acetylcholine receptor; alpha4/beta4 (Rattus norvegicus, UniProt P09483+P12392)
# Sequence (P09483 whole entry): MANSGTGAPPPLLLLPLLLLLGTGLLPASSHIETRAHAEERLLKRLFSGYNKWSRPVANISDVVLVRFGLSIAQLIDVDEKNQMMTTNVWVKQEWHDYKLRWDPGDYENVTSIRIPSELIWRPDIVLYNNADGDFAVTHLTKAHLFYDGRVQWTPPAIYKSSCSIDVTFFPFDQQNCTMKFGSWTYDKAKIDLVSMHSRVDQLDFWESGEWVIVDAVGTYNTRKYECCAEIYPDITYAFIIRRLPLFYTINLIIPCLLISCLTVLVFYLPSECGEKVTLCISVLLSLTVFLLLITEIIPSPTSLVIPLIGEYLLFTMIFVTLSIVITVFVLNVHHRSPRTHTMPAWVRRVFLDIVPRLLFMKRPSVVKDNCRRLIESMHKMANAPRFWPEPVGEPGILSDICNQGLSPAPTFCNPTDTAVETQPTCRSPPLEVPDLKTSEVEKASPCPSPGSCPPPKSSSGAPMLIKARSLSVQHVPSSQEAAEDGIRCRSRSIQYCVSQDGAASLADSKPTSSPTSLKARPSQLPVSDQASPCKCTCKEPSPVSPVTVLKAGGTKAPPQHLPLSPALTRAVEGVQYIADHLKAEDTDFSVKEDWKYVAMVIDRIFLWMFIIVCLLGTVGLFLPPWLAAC
# Sequence (P12392 whole entry): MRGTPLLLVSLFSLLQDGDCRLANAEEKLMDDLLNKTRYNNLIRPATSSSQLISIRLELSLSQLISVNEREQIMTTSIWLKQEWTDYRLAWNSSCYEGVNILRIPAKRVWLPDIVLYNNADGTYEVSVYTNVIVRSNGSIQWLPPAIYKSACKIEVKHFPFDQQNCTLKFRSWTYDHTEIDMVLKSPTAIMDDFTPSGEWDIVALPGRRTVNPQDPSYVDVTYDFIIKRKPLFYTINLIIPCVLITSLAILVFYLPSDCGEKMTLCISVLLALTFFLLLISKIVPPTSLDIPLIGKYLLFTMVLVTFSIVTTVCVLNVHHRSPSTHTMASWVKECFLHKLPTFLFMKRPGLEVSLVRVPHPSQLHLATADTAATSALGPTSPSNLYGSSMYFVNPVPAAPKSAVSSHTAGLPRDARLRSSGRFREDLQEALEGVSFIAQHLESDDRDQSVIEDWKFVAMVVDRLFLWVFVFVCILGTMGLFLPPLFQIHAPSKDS
# experiment description: Displacement of [3H] epibatidine from rat alpha4beta4 nAChR by beta scintillation counting
property measured: pKi
One number for each entry, as −log10 of the molar value.

[[record]]
chem_smiles = "OCC[C@@H]1C[C@H]1c1cncc(OC[C@@H]2CCN2)c1"
readout_number = 7.54

[[record]]
chem_smiles = "COCC[C@H]1C[C@@H]1c1cncc(OC[C@@H]2CCN2)c1"
readout_number = 7.30

[[record]]
chem_smiles = "O=C(Nc1ccccc1)OCC[C@H]1C[C@@H]1c1cncc(OC[C@@H]2CCN2)c1"
readout_number = 6.26

[[record]]
chem_smiles = "COCC[C@@H]1C[C@H]1c1cncc(OC[C@@H]2CCN2)c1"
readout_number = 7.02

[[record]]
chem_smiles = "CN(C)C(=O)OCC[C@H]1C[C@@H]1c1cncc(OC[C@@H]2CCN2)c1"
readout_number = 6.55


List reported pKi for each of these molecules:
1. CNC(=O)OCC[C@H]1C[C@@H]1c1cncc(OC[C@@H]2CCN2)c1
2. O=C(NC1CC1)OCC[C@H]1C[C@@H]1c1cncc(OC[C@@H]2CCN2)c1
3. O=C(OCC[C@H]1C[C@@H]1c1cncc(OC[C@@H]2CCN2)c1)N1CCCC1

[6.36, 6.63, 6.79]

---

# target or test system: Neuronal acetylcholine receptor; alpha4/beta2 (Rattus norvegicus, UniProt P09483+P12390)
# Sequence (P09483 whole entry, one chain of several): as the sequence (P09483 whole entry) above
# experiment description: Displacement of [3H] epibatidine from rat alpha4beta2* nAChR in rat forebrain by beta scintillation counting
property measured: pKi
Answers are plain numbers, as −log10 of the molar value.

[[record]]
chem_smiles = "O=C(OCC[C@H]1C[C@@H]1c1cncc(OC[C@@H]2CCN2)c1)N1CCCC1"
target_or_test_system = "Neuronal acetylcholine receptor; alpha4/beta2 (Rattus norvegicus, UniProt P09483+P12390)"
readout_number = 8.40

[[record]]
chem_smiles = "COCC[C@@H]1C[C@H]1c1cncc(OC[C@@H]2CCN2)c1"
target_or_test_system = "Neuronal acetylcholine receptor; alpha4/beta2 (Rattus norvegicus, UniProt P09483+P12390)"
readout_number = 8.21

[[record]]
chem_smiles = "O=C(NC1CC1)OCC[C@H]1C[C@@H]1c1cncc(OC[C@@H]2CCN2)c1"
target_or_test_system = "Neuronal acetylcholine receptor; alpha4/beta2 (Rattus norvegicus, UniProt P09483+P12390)"
readout_number = 8.62

[[record]]
chem_smiles = "COCC[C@H]1C[C@@H]1c1cncc(OC[C@@H]2CCN2)c1"
target_or_test_system = "Neuronal acetylcholine receptor; alpha4/beta2 (Rattus norvegicus, UniProt P09483+P12390)"
readout_number = 9.52

[[record]]
chem_smiles = "OCC[C@H]1C[C@@H]1c1cncc(OC[C@@H]2CCN2)c1"
target_or_test_system = "Neuronal acetylcholine receptor; alpha4/beta2 (Rattus norvegicus, UniProt P09483+P12390)"
readout_number = 9.30

[[record]]
chem_smiles = "CN(C)C(=O)OCC[C@H]1C[C@@H]1c1cncc(OC[C@@H]2CCN2)c1"
target_or_test_system = "Neuronal acetylcholine receptor; alpha4/beta2 (Rattus norvegicus, UniProt P09483+P12390)"
readout_number = 8.68


Go through the list and state pKi for each entry.
1. OCC[C@@H]1C[C@H]1c1cncc(OC[C@@H]2CCN2)c1
2. CNC(=O)OCC[C@H]1C[C@@H]1c1cncc(OC[C@@H]2CCN2)c1
3. O=C(Nc1ccccc1)OCC[C@H]1C[C@@H]1c1cncc(OC[C@@H]2CCN2)c1

1. 8.43
2. 8.77
3. 8.23

---

# experiment description: Drug uptake in BALB/cJ mouse brain at 1 mg/kg after 15 mins
# Format: ADME, organism-based
# Set-up: dose 1 mg/kg
# measurement setup: read-out: Drug uptake
property measured: concentration at 0.25 h
I'd appreciate it if you included the unit after the number.

Which concentration at 0.25 h is listed for OCCCCC#Cc1cncc(OC[C@@H]2CCN2)c1 ? 3 ng/g

---

# target or test system: Neuronal acetylcholine receptor; alpha4/beta2 (Homo sapiens, UniProt P17787+P43681)
# experiment description: Partial agonist activity at human high sensitive alpha4beta2 nAChR expressed in SH-EP1 cells assessed as 86Rb+ ion efflux by flip-plate technique relative to sazetidine-A
# Assay type: functional, cell-based
Hi! Could you tag entries with Efficacy below 80% as 1, and those at or above as -1? Much appreciated.

As a guide, the following entries are already answered.
[[record]]
chem_smiles = "COCC[C@@H]1C[C@H]1c1cncc(OC[C@@H]2CCN2)c1"
assigned_category = 1

[[record]]
chem_smiles = "OCC[C@@H]1C[C@H]1c1cncc(OC[C@@H]2CCN2)c1"
assigned_category = 1

[[record]]
chem_smiles = "OCC[C@H]1C[C@@H]1c1cncc(OC[C@@H]2CCN2)c1"
assigned_category = -1

[[record]]
chem_smiles = "OCCCCC#Cc1cncc(OC[C@@H]2CCN2)c1"
assigned_category = -1


Shifting focus to the compound that follows.
Decide: Efficacy of COCC[C@H]1C[C@@H]1c1cncc(OC[C@@H]2CCN2)c1 strictly below 80%? 1

---

# target or test system: Neuronal acetylcholine receptor; alpha2/beta2 (Rattus norvegicus, UniProt P12389+P12390)
# Sequence (P12389 whole entry, one chain of several): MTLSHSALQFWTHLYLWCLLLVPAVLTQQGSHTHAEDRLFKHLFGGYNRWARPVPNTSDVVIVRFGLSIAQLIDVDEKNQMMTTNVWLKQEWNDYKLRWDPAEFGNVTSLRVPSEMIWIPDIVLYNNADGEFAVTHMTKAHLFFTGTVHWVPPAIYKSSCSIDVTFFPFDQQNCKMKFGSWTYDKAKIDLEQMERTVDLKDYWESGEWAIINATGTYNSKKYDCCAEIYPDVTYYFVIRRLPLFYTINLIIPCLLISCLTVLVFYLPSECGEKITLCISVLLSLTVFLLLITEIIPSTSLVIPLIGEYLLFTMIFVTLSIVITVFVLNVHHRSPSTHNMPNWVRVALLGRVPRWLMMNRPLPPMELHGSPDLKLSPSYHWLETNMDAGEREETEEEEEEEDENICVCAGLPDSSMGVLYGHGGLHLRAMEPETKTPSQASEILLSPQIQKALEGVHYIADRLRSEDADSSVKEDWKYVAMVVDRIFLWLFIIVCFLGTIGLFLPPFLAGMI
# experiment description: Displacement of [3H] epibatidine from rat alpha2beta2 nAChR by beta scintillation counting
property measured: pKi
Numbers only, as −log10 of the molar value.

[[record]]
chem_smiles = "COCC[C@@H]1C[C@H]1c1cncc(OC[C@@H]2CCN2)c1"
readout_number = 9.30

[[record]]
chem_smiles = "OCC[C@@H]1C[C@H]1c1cncc(OC[C@@H]2CCN2)c1"
readout_number = 9.30

[[record]]
chem_smiles = "COCC[C@H]1C[C@@H]1c1cncc(OC[C@@H]2CCN2)c1"
readout_number = 10.00

[[record]]
chem_smiles = "O=C(NC1CC1)OCC[C@H]1C[C@@H]1c1cncc(OC[C@@H]2CCN2)c1"
readout_number = 9.05


# batch: return pKi for each of the 5 compounds below
1. O=C(OCC[C@H]1C[C@@H]1c1cncc(OC[C@@H]2CCN2)c1)N1CCCC1
2. O=C(Nc1ccccc1)OCC[C@H]1C[C@@H]1c1cncc(OC[C@@H]2CCN2)c1
3. CN(C)C(=O)OCC[C@H]1C[C@@H]1c1cncc(OC[C@@H]2CCN2)c1
4. CNC(=O)OCC[C@H]1C[C@@H]1c1cncc(OC[C@@H]2CCN2)c1
5. OCC[C@H]1C[C@@H]1c1cncc(OC[C@@H]2CCN2)c1

8.82
8.92
9.52
9.52
10.00
